System: 855422-203-R-J1-PDC complex spheroids, viability
protocol_details: Anticancer human tumor 855422-203-R-J1-PDC patient-derived bladder carcinoma cell line growth inhibition [CLK]
run_parameters: second compound 10 µM; first compound 0.3 µM; stronger effect = lower value
viability, T/C values, listed per item
Give the value in % but do not write % after it.

Worked set:
compound: NC(=O)C(=Cn1cnc(-c2cc(C(F)(F)F)cc(C(F)(F)F)c2)n1)c1cncnc1 + CNC(=O)c1ccc(Nc2nc(OC3CCCC3)c3c(-c4ccc5nc(C)oc5c4)c[nH]c3n2)c(OC)c1
viability, T/C [%]: 1.75
--
compound: C=CC(=O)Nc1cc(Nc2nccc(-c3cn(C)c4ccccc34)n2)c(OC)cc1N(C)CCN(C)C + CN1CCN(c2cc(C(=O)Nc3cc4cc(-c5cnn(C)c5)ccc4cn3)ccn2)CC1
viability, T/C [%]: 0.28

Short answer for CC(C)CC(NC(=O)C(Cc1ccccc1)NC(=O)c1cnccn1)B(O)O (stereo not drawn) + CNC(=O)c1ccc(Nc2nc(OC3CCCC3)c3c(-c4ccc5nc(C)oc5c4)c[nH]c3n2)c(OC)c1 : viability, T/C was 0.12

* * *

Tested on: 855422-203-R-J1-PDC complex spheroids, viability
protocol_details: Anticancer human tumor 855422-203-R-J1-PDC cell line growth inhibition [CLK]; active means viability on the fitted dose curve at most 10% of control; inactive means the rest
run_parameters: second compound 3.16 µM; first compound 0.0316 µM
Assign a class; possible classes are active, inactive

Answered cases to consult:
molecule: CC(Nc1ccc2c(c1)OCCn1cc(N3C(=O)OCC3C(F)F)nc1-2)C(N)=O (stereo not given) + CN1CCN(c2cc(C(=O)Nc3cc4cc(-c5cnn(C)c5)ccc4cn3)ccn2)CC1
class_name: active
--
molecule: C=CC(=O)N1CCN(c2nc(=O)n(-c3c(C)ccnc3C(C)C)c3nc(-c4c(O)cccc4F)c(F)cc23)C(C)C1 (stereo not given) + CNC(=O)c1ccc(Nc2nc(OC3CCCC3)c3c(-c4ccc5nc(C)oc5c4)c[nH]c3n2)c(OC)c1
class_name: inactive
--
molecule: CCCS(=O)(=O)Nc1ccc(F)c(C(=O)c2c[nH]c3ncc(-c4ccc(Cl)cc4)cc23)c1F + CN1CCN(c2cc(C(=O)Nc3cc4cc(-c5cnn(C)c5)ccc4cn3)ccn2)CC1
class_name: active
--
molecule: Nc1ccn(C2OC(CO)C(O)C2(F)F)c(=O)n1 (stereo not given) + CN1CCN(c2cc(C(=O)Nc3cc4cc(-c5cnn(C)c5)ccc4cn3)ccn2)CC1
class_name: active

Prompt: Short answer needed: outcome of this test for CC(Nc1ccc2c(c1)OCCn1cc(N3C(=O)OCC3C(F)F)nc1-2)C(N)=O (stereo not given) + CNC(=O)c1ccc(Nc2nc(OC3CCCC3)c3c(-c4ccc5nc(C)oc5c4)c[nH]c3n2)c(OC)c1 ?
Response: inactive

* * *

Test system: 855422-203-R-J1-PDC complex spheroids, viability
protocol_details: Anticancer human tumor 855422-203-R-J1-PDC cell line growth inhibition [CLK]; active = viability on the fitted dose curve at most 10% of control; inactive = the rest;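 further: spheroids exposed to drugs for seven days before readout; 100% = DMSO vehicle control wells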
run_parameters: second compound 0.316 µM; first compound 10 µM
Source text: A high-throughput screen of multi-cell type tumor spheroids was designed to identify active combinations of […] and targeted small molecules. Complex spheroids include a stromal component modeled by human endothelial cells (HUVEC) and fibroblasts modeled by human mesenchymal stem cells (MSCs). […] Compounds. […] If the clinical Cmax for an agent had not been determined, the highest concentration tested was 10 microM. […]
Assign a class; possible classes are active, inactive

compound: C=CC(=O)N1CCN(c2nc(=O)n(-c3c(C)ccnc3C(C)C)c3nc(-c4c(O)cccc4F)c(F)cc23)C(C)C1 (stereo not given) + CN1CCN(c2cc(C(=O)Nc3cc4cc(-c5cnn(C)c5)ccc4cn3)ccn2)CC1
class_name: inactive

Switching to the query record.
Prompt: Short answer needed: outcome of this test for O=C(c1cc(Cc2n[nH]c(=O)c3ccccc23)ccc1F)N1CCN(C(=O)C2CC2)CC1 + CN1CCN(c2cc(C(=O)Nc3cc4cc(-c5cnn(C)c5)ccc4cn3)ccn2)CC1 ?
Response: active

* * *

Tested on: 855422-203-R-J1-PDC complex spheroids, viability
protocol_details: Anticancer human tumor 855422-203-R-J1-PDC cell line growth inhibition [CLK]; active = viability on the fitted dose curve at most 10% of control; inactive = the rest;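 further: spheroids exposed to drugs for seven days before readout; 100% = DMSO vehicle control wells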
run_parameters: second compound 1 µM; first compound 0.1 µM
Assign a class; possible classes are TRUE (active), FALSE (inactive)

compound: CC1(C)CCC(CN2CCN(c3ccc(C(=O)NS(=O)(=O)c4ccc(NCC5CCOCC5)c([N+](=O)[O-])c4)c(Oc4cnc5[nH]ccc5c4)c3)CC2)=C(c2ccc(Cl)cc2)C1 + CN1CCN(c2cc(C(=O)Nc3cc4cc(-c5cnn(C)c5)ccc4cn3)ccn2)CC1
class_name: TRUE

Prompt: Short answer needed: outcome of this test for COc1c(OCCCN2CCOCC2)ccc2c3n(c(=NC(=O)c4cnc(N)nc4)nc12)CCN3 + CNC(=O)c1ccc(Nc2nc(OC3CCCC3)c3c(-c4ccc5nc(C)oc5c4)c[nH]c3n2)c(OC)c1 ?
Response: TRUE

Prompt: Short answer needed: outcome of this test for C=CC(=O)N1CCN(c2nc(=O)n(-c3c(C)ccnc3C(C)C)c3nc(-c4c(O)cccc4F)c(F)cc23)C(C)C1 (stereo not given) + CNC(=O)c1ccc(Nc2nc(OC3CCCC3)c3c(-c4ccc5nc(C)oc5c4)c[nH]c3n2)c(OC)c1 ?
Response: FALSE

* * *

System: 855422-203-R-J1-PDC complex spheroids, viability
protocol_details: Anticancer human tumor 855422-203-R-J1-PDC cell line growth inhibition [CLK];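 further: spheroids exposed to drugs for seven days before readout; 100% = DMSO vehicle control wells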
run_parameters: second compound 0.1 µM; first compound 3.16 µM; stronger effect = lower value
viability, T/C values, listed per item
Give the value in % but do not write % after it.

compound: Nc1ccccc1NC(=O)c1ccc(CNC(=O)OCc2cccnc2)cc1 + CN1CCN(c2cc(C(=O)Nc3cc4cc(-c5cnn(C)c5)ccc4cn3)ccn2)CC1
viability, T/C (%): 10.7
--
compound: C=C(F)C(=O)N1CCN(c2nc(OCC3CCCN3C)nc3c2CCN(c2cccc4cccc(Cl)c24)C3)CC1CC#N (stereo not given) + CN1CCN(c2cc(C(=O)Nc3cc4cc(-c5cnn(C)c5)ccc4cn3)ccn2)CC1
viability, T/C (%): 22.8
--
compound: CC1(C)CCC(CN2CCN(c3ccc(C(=O)NS(=O)(=O)c4ccc(NCC5CCOCC5)c([N+](=O)[O-])c4)c(Oc4cnc5[nH]ccc5c4)c3)CC2)=C(c2ccc(Cl)cc2)C1 + CN1CCN(c2cc(C(=O)Nc3cc4cc(-c5cnn(C)c5)ccc4cn3)ccn2)CC1
viability, T/C (%): 93
--
compound: COc1ccc([C@@H](O)c2cc(-c3ncnc4cc(N5CCOCC5)ccc34)c(F)cc2Cl)nn1 + CN1CCN(c2cc(C(=O)Nc3cc4cc(-c5cnn(C)c5)ccc4cn3)ccn2)CC1
viability, T/C (%): 64.6
--
compound: COc1cccc2c1C(=O)c1c(O)c3c(c(O)c1C2=O)CC(O)(C(=O)CO)CC3OC1CC(N)C(O)C(C)O1 (stereo not given) + CN1CCN(c2cc(C(=O)Nc3cc4cc(-c5cnn(C)c5)ccc4cn3)ccn2)CC1
viability, T/C (%): 0.35
--
compound: C#Cc1c(F)ccc2cc(O)cc(-c3ncc4c(N5CC6CCC(C5)N6)nc(OCC56CCCN5CC(F)C6)nc4c3F)c12 (stereo not given) + CN1CCN(c2cc(C(=O)Nc3cc4cc(-c5cnn(C)c5)ccc4cn3)ccn2)CC1
viability, T/C (%): 93.3
--
compound: CC(Nc1ccc2c(c1)OCCn1cc(N3C(=O)OCC3C(F)F)nc1-2)C(N)=O (stereo not given) + CNC(=O)c1ccc(Nc2nc(OC3CCCC3)c3c(-c4ccc5nc(C)oc5c4)c[nH]c3n2)c(OC)c1
viability, T/C (%): 19.7
--
compound: O=C(c1cc(Cc2n[nH]c(=O)c3ccccc23)ccc1F)N1CCN(C(=O)C2CC2)CC1 + CN1CCN(c2cc(C(=O)Nc3cc4cc(-c5cnn(C)c5)ccc4cn3)ccn2)CC1
viability, T/C (%): 83.5

Observed viability, T/C on 855422-203-R-J1-PDC complex spheroids, viability, entry CC1COCCN1c1cc(C2(S(C)(=N)=O)CC2)nc(-c2ccnc3[nH]ccc23)n1 (stereo not given) + CNC(=O)c1ccc(Nc2nc(OC3CCCC3)c3c(-c4ccc5nc(C)oc5c4)c[nH]c3n2)c(OC)c1 , equals 18.6

Observed viability, T/C on 855422-203-R-J1-PDC complex spheroids, viability, entry CC1COCCN1c1cc(C2(S(C)(=N)=O)CC2)nc(-c2ccnc3[nH]ccc23)n1 (stereo not given) + CN1CCN(c2cc(C(=O)Nc3cc4cc(-c5cnn(C)c5)ccc4cn3)ccn2)CC1 , equals 24

* * *

viability, T/C values, listed per item
System: 855422-203-R-J1-PDC complex spheroids, viability
protocol_details: Anticancer human tumor 855422-203-R-J1-PDC cell line growth inhibition [CLK];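 further: spheroids exposed to drugs for seven days before readout; 100% = DMSO vehicle control wells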
run_parameters: second compound 10 µM; first compound 0.316 µM; stronger effect = lower value

Worked set:
compound: C#Cc1c(F)ccc2cc(O)cc(-c3ncc4c(N5CC6CCC(C5)N6)nc(OCC56CCCN5CC(F)C6)nc4c3F)c12 (stereo unspecified) + CNC(=O)c1ccc(Nc2nc(OC3CCCC3)c3c(-c4ccc5nc(C)oc5c4)c[nH]c3n2)c(OC)c1
measurement_type: viability, T/C
observed_result: 24.1%

compound: COC1C=CCC(C)C(C)S(=O)(=O)NC(=O)c2ccc3c(c2)N(CC2CCC21)CC1(CCCc2cc(Cl)ccc21)CO3 (stereo unspecified) + CNC(=O)c1ccc(Nc2nc(OC3CCCC3)c3c(-c4ccc5nc(C)oc5c4)c[nH]c3n2)c(OC)c1
measurement_type: viability, T/C
observed_result: 17.9%

compound: CC(CO)NC(=O)c1cc(-c2ccc(Cl)cc2)nn(-c2cnn(C)c2)c1=O (stereo unspecified) + CN1CCN(c2cc(C(=O)Nc3cc4cc(-c5cnn(C)c5)ccc4cn3)ccn2)CC1
measurement_type: viability, T/C
observed_result: 0.33%

compound: COc1c(OCCCN2CCOCC2)ccc2c3n(c(=NC(=O)c4cnc(N)nc4)nc12)CCN3 + CNC(=O)c1ccc(Nc2nc(OC3CCCC3)c3c(-c4ccc5nc(C)oc5c4)c[nH]c3n2)c(OC)c1
measurement_type: viability, T/C
observed_result: 3.27%

compound: COc1cccc2c1C(=O)c1c(O)c3c(c(O)c1C2=O)CC(O)(C(=O)CO)CC3OC1CC(N)C(O)C(C)O1 (stereo unspecified) + CN1CCN(c2cc(C(=O)Nc3cc4cc(-c5cnn(C)c5)ccc4cn3)ccn2)CC1
measurement_type: viability, T/C
observed_result: 1.68%

compound: CC(Nc1ccc2c(c1)OCCn1cc(N3C(=O)OCC3C(F)F)nc1-2)C(N)=O (stereo unspecified) + CN1CCN(c2cc(C(=O)Nc3cc4cc(-c5cnn(C)c5)ccc4cn3)ccn2)CC1
measurement_type: viability, T/C
observed_result: 0.23%

compound: CCN1CCN(Cc2ccc(Nc3ncc(F)c(-c4cc(F)c5nc(C)n(C(C)C)c5c4)n3)nc2)CC1 + CN1CCN(c2cc(C(=O)Nc3cc4cc(-c5cnn(C)c5)ccc4cn3)ccn2)CC1
measurement_type: viability, T/C
observed_result: 0.64%

compound: COc1c(OCCCN2CCOCC2)ccc2c3n(c(=NC(=O)c4cnc(N)nc4)nc12)CCN3 + CN1CCN(c2cc(C(=O)Nc3cc4cc(-c5cnn(C)c5)ccc4cn3)ccn2)CC1
measurement_type: viability, T/C
observed_result: 0.32%

Short answer for O=c1[nH]cc(F)c(=O)[nH]1 + CNC(=O)c1ccc(Nc2nc(OC3CCCC3)c3c(-c4ccc5nc(C)oc5c4)c[nH]c3n2)c(OC)c1 : viability, T/C was 20.2%

Short answer for C=C(F)C(=O)N1CCN(c2nc(OCC3CCCN3C)nc3c2CCN(c2cccc4cccc(Cl)c24)C3)CC1CC#N (stereo unspecified) + CN1CCN(c2cc(C(=O)Nc3cc4cc(-c5cnn(C)c5)ccc4cn3)ccn2)CC1 : viability, T/C was 0.41%

Short answer for CCCS(=O)(=O)Nc1ccc(F)c(C(=O)c2c[nH]c3ncc(-c4ccc(Cl)cc4)cc23)c1F + CN1CCN(c2cc(C(=O)Nc3cc4cc(-c5cnn(C)c5)ccc4cn3)ccn2)CC1 : viability, T/C was 0.21%
